Measured Primary assay EC50 (cAMP), n2, listed per entry for reference.
Target: T1, glucose-dependent insulinotropic peptide (gastric inhibitory polypeptide) receptor (GIPR), primary cAMP assay (human, UniProt P48546 22-466)
T1 sequence (looked up): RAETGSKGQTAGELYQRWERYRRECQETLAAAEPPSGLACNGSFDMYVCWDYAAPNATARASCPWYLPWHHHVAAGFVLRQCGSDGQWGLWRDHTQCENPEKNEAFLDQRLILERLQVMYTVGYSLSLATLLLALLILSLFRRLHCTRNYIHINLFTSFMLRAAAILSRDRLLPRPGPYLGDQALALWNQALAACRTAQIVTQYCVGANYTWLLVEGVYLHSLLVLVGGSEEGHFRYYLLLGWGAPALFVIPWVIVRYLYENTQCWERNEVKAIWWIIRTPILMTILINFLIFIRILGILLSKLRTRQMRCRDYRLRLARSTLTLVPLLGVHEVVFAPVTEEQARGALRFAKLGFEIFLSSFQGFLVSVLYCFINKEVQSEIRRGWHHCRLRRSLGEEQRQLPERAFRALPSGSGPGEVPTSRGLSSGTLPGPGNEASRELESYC
Assay: cell-based or functional assay
Starred links: 1 amine or outer side, 2 acyl side, 3 side chain; linkers in the order of their positions; H or OH if unused. Non-standard residues stand in square brackets, D forms with d. Groups on a side chain read outwards from the residue. Primed or numbered codes have the meaning given here. No end group written: not given here. *: point of attachment. γGlu = O=C(O)[C@H](CCC(=O)[*:2])N[*:1]; αMeF = C[C@](N)(Cc1ccccc1)C(=O)O; αMeK = C[C@](N)(CCCCN)C(=O)O; Lauroyl = CCCCCCCCCCCC(=O)*; PEG2′ = not defined here; Aib = CC(C)(N)C(=O)O
Report as a plain number; the unit nM is understood.

H[Aib]EGS[αMeF]TSDVSK([PEG2′-PEG2′-γGlu-Lauroyl])YLEGEAA[αMeK]EFIAWK([PEG2′-PEG2′-γGlu-Lauroyl])VEGG-NH2 [SEQ ID NO: 253] : 22.3

Record summary for H[Aib]EGS[αMeF]TSDVSK([PEG2′-PEG2′-γGlu-Lauroyl])FLEGEAAEEFIK([PEG2′-PEG2′-γGlu-Lauroyl])FVVEGG-NH2 [SEQ ID NO: 241] : reported Primary assay EC50 (cAMP), n2 = 22.5
